Biological target: human μ opiate receptor (Homo sapiens)
Construct: purchased PerkinElmer Life Sciences, Zaventem, Belgium RB-HOM; host or cells: CHO-K1 cells (membrane preparation)
Sequence (P35372 whole entry): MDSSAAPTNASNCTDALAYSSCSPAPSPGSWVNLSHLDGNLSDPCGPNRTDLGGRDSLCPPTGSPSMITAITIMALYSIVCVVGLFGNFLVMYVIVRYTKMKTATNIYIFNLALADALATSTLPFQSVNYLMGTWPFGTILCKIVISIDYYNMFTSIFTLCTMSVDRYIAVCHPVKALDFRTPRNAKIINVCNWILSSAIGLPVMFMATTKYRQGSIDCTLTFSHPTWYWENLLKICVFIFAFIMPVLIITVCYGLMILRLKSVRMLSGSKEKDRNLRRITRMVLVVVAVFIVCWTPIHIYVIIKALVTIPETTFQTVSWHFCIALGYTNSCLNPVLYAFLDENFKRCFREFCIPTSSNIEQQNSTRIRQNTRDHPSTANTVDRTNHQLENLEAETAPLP
Assay: Affinity for the human μ opiate receptor ([3H]-naloxone displacement, CHO-K1 receptor membrane preparation, SPA)
Assay type: binding
Conditions: test concentration of 1 μM; read-out: μ (binding on the μ opioid receptor, % inhibition)
ENDPOINT_NAME: inhibition at 1 µM (%)

INSERT INTO results (compound, endpoint_name, u, readout_value) VALUES
  ('CN(C)C(c1ccccc1)C1CCC(NC(=O)COCC2CCCCN2S(=O)(=O)c2ccc(Cl)cc2)CC1 (stereo not drawn)', 'inhibition at 1 µM', '%', 91),
  ('CN(C)C(c1cccs1)C1CCC(CCNC(=O)COC2CCN(S(=O)(=O)c3cccc(C(F)(F)F)c3)C2)CC1 (stereo not drawn)', 'inhibition at 1 µM', '%', 92),
  ('CN(C)C(c1cccc(F)c1)C1CCC(CCNC(=O)COCCN(C)S(=O)(=O)c2cccc(C(F)(F)F)c2)CC1 (stereo not drawn)', 'inhibition at 1 µM', '%', 88);

====

Molecular target: human bradykinin 1 receptor (B1R) (Homo sapiens, UniProt P46663)
Construct: expressed in transfected cells; host or cells: CHO K1 cells
Sequence (P46663 1-353): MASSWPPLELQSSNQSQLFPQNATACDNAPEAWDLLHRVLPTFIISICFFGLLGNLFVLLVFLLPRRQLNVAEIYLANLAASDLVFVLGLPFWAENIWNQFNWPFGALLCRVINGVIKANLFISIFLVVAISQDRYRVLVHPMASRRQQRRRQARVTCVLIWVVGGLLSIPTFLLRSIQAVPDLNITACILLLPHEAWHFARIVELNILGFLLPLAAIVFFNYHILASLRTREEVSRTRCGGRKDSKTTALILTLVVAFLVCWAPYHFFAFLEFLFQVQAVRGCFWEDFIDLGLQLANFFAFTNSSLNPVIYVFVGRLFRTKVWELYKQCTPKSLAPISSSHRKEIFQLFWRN
Assay: Functional investigation on the human bradykinin 1 receptor (B1R), Ca2+ FLIPR assay in CHO K1 hB1R cells
Type: cell-based
Details: B1R antagonism human; test substance 10 μM; Ca2+ FLIPR, CHO K1 hB1R cells
Output satisfied for records whose B1R Ant. h [10 μM] % Inhibition is lower than 10%, not satisfied for records at or above 10%.

INSERT INTO results (compound, discrete_label) VALUES
  ('CN(C)C(c1ccc(Cl)cc1)C1CCC(CCNC(=O)COC2CCCN(S(=O)(=O)c3ccccc3)C2)CC1 (stereo not shown) [Example 395]', 'not satisfied'),
  ('CN(C)C(c1ccc(Cl)cc1)C1CCC(CCNC(=O)COCCN(C)S(=O)(=O)c2c(Cl)cc(Cl)cc2Cl)CC1 (stereo not shown) [Example 442]', 'not satisfied'),
  ('Cc1ccc(S(=O)(=O)N(C)CCOCC(=O)NCC2CCC(C(c3ccc(Cl)cc3)N(C)C)CC2)cc1 (stereo not shown) [Example 273]', 'not satisfied'),
  ('COc1ccc(S(=O)(=O)N2CCCC2COCC(=O)NC2CCC(C(c3ccc(F)cc3)N(C)C)CC2)cc1 (stereo not shown) [Example 461]', 'not satisfied'),
  ('CN(C)C(c1ccc(Cl)cc1)C1CCC(CCNC(=O)COCCN(C)S(=O)(=O)c2ccc(Cl)cc2Cl)CC1 (stereo not shown) [Example 291]', 'not satisfied'),
  ('CCN(CCOCC(=O)NCC1CCC(C(c2ccccc2)N(C)C)CC1)S(=O)(=O)c1c(C)cc(OC)c(C)c1C (stereo not shown) [Example 231]', 'satisfied'),
  ('CN(C)C(c1cccc(F)c1)C1CCC(NC(=O)COCC2CCCN(S(=O)(=O)c3ccccc3)C2)CC1 (stereo not shown) [Example 266]', 'satisfied');
